system: FMOC25_2 (patient-derived low-grade serous ovarian cancer cells); test: drug sensitivity score (DSS3, normalised partial AUC of % inhibition dose-response) (DSS (score)); higher = more sensitive (stronger inhibition of viability); extreme values may be limits of the assay; conditions: 72 h; library: FO5A; assay format: 2D, 384-well, CellTiter-Glo
So basically: drug sensitivity score at 6 or higher? That is True. Lower than 6? That is False.

Previously resolved entries follow.
| COMPOUND | EXPERIMENTAL_SYSTEM | CLASS_LABEL |
| --- | --- | --- |
| CO[C@@H](C)Cn1c(=O)n(C)c2cnc3ccc(-c4cncc(C(C)(C)O)c4)cc3c21 | FMOC25_2 | True |
| O=C(CCCCCCC(=O)Nc1ccccc1)NO [Vorinostat] | FMOC25_2 | True |
| Nc1cccc2c1CN(C1CCC(=O)NC1=O)C2=O (configuration not stated) [Lenalidomide] | FMOC25_2 | False |
| COc1ccc(-c2ccc3c(N4CCOC[C@@H]4C)nc(N4CCOC[C@@H]4C)nc3n2)cc1CO [AZD8055] | FMOC25_2 | True |
| C/C=C1\NC(=O)[C@H]2CSSCC/C=C/[C@H](CC(=O)N[C@H](C(C)C)C(=O)N2)OC(=O)[C@H](C(C)C)NC1=O [Romidepsin] | FMOC25_2 | True |
| COc1cc2c(cc1OC(C)C)[C@H](c1ccc(Cl)cc1)N(c1ccc(N(C)C[C@H]3CC[C@H](N4CCN(C)C(=O)C4)CC3)cc1)C(=O)C2 [NVP-CGM097] | FMOC25_2 | True |

Q: Is drug sensitivity score at least 6? Consider COC(=O)C[C@](O)(CCCC(C)(C)O)C(=O)O[C@@H]1C(OC)=C[C@]23CCCN2CCc2cc4c(cc2[C@H]13)OCO4 [Omacetaxine]
A: True

Q: Is drug sensitivity score at least 6? Consider CCCCCCCCCCCCCCCCCCOP(=O)([O-])OC1CC[N+](C)(C)CC1 [Perifosine]
A: False

Q: Is drug sensitivity score at least 6? Consider COc1cc2/c(=N/c3ccc(Br)cc3F)nc[nH]c2cc1OCC1CCN(C)CC1 [Vandetanib]
A: False

Q: Is drug sensitivity score at least 6? Consider Cc1ncc(-c2ccnc(Nc3ccc(S(C)(=O)=O)cc3)n2)n1C(C)C [AZD-5438]
A: True

Q: Is drug sensitivity score at least 6? Consider CCS(=O)(=O)N1CCN(c2ccc(Nc3ncc(C(N)=O)c(NC4CC4)n3)cc2)CC1 [Cerdulatinib]
A: True

Q: Is drug sensitivity score at least 6? Consider COc1ccc(-c2nc(N3CCOCC3)c3sc(CN(C)c4ncc(C(=O)NO)cn4)cc3n2)cn1 [CUDC-907]
A: True

Q: Is drug sensitivity score at least 6? Consider c1cc(CN2CCCNCCNCCCNCC2)ccc1CN1CCCNCCNCCCNCC1 [Plerixafor]
A: False

Q: Is drug sensitivity score at least 6? Consider CC[C@H](NC(=O)[C@H](C)NC)C(=O)N1C[C@@H](O)C[C@H]1Cc1c(-c2[nH]c3cc(F)ccc3c2C[C@@H]2C[C@H](O)CN2C(=O)[C@H](CC)NC(=O)[C@H](C)NC)[nH]c2cc(F)ccc12 [Birinapant]
A: True

###

system: FMOC24 (patient-derived high-grade serous ovarian cancer cells); experiment: drug sensitivity score (DSS3, normalised partial AUC of % inhibition dose-response) (DSS (score)); higher = more sensitive (stronger inhibition of viability); extreme values may be limits of the assay; settings: 72 h; library: FO5A; assay format: 2D, 384-well, CellTiter-Glo
So basically: drug sensitivity score at 2 or higher? That is True. Lower than 2? That is False.

Previously resolved entries follow.
| CPD_SMILES | CLASS_LABEL |
| --- | --- |
| CN(C)C[C@@H]1CCn2cc(c3ccccc32)C2=C(C(=O)NC2=O)c2cn(c3ccccc23)CCO1 | True |
| CC(C)Oc1ccc(-c2nn([C@@H](C)c3oc4ccc(F)cc4c(=O)c3-c3cccc(F)c3)c3ncnc(N)c23)cc1F | False |
| CO[C@@]12[C@H](COC(N)=O)C3=C(C(=O)C(C)=C(N)C3=O)N1C[C@@H]1N[C@@H]12 | False |
| C=C1C[C@@H]2CC[C@@]34C[C@H]5O[C@H]6[C@@H](O3)[C@H]3O[C@H](CC[C@@H]3O[C@H]6[C@H]5O4)CC(=O)C[C@@H]3[C@@H](OC)[C@@H](C[C@H](O)CN)O[C@H]3C[C@H]3O[C@@H](CC[C@@H]1O2)C[C@@H](C)C3=C | False |
| CCN(c1cc(-c2ccc(CN3CCOCC3)cc2)cc(C(=O)NCc2c(C)cc(C)[nH]c2=O)c1C)C1CCOCC1 | False |

Q: Is drug sensitivity score at least 2? Consider Cc1ccc(NC(=O)c2ccc(CN3CCN(C)CC3)cc2)cc1Nc1nc(-c2cccnc2)cs1
A: True

Q: Is drug sensitivity score at least 2? Consider CNC(=O)c1cc(COc2nnc(Nc3ccc(Cl)cc3)c3ccoc23)ccn1
A: False

Q: Is drug sensitivity score at least 2? Consider S=c1[nH]cnc2nc[nH]c12
A: False

###

tested on: FMOC09 (patient-derived high-grade serous ovarian cancer cells); experiment: drug sensitivity score (DSS3, normalised partial AUC of % inhibition dose-response) (DSS (score)); higher = more sensitive (stronger inhibition of viability); extreme values may be limits of the assay; settings: 72 h; library: FO5A; assay format: 2D, 384-well, CellTiter-Glo
OUTCOME_MEASURE: drug sensitivity score
Enter the number alone.

Below: 3 compounds and their reported drug sensitivity score.
| COMPOUND | drug sensitivity score |
| --- | --- |
| Cc1nc2cccc(N)c2c(=O)n1C1CCC(=O)NC1=O (stereo not drawn) | 0 |
| Nc1cc(COc2c(Cl)cc(C[C@H](N)C(=O)O)cc2Cl)c2oc(-c3ccccc3)nc2c1 | 0 |
| CN(Cc1cnc2nc(N)nc(N)c2n1)c1ccc(C(=O)N[C@@H](CCC(=O)O)C(=O)O)cc1 [Methotrexate] | 0 |

Q: Note drug sensitivity score for the compound shown: COc1cc2nccc(Oc3ccc(NC(=O)Nc4cc(C)on4)c(Cl)c3)c2cc1OC
A: 0.4

Q: Note drug sensitivity score for the compound shown: Cc1sc2c(c1C)C(c1ccc(Cl)cc1)=N[C@@H](CC(=O)Nc1ccc(OCCOCCOCCOCCNc3cccc4c3C(=O)N(C3CCC(=O)NC3=O)C4=O)cc1)c1nnc(C)n1-2 (stereo partly drawn)
A: 8.3

Q: Note drug sensitivity score for the compound shown: Cc1c(-c2ccc(N3CCc4cccc(C(=O)Nc5nc6ccccc6s5)c4C3)nc2C(=O)O)cnn1CC12CC3CC(CC(C3)C1)C2
A: 3.1

Q: Note drug sensitivity score for the compound shown: CC#CC(=O)N1CCC[C@H]1c1nc(-c2ccc(C(=O)Nc3ccccn3)cc2)c2c(N)nccn12
A: 0.8

Q: Note drug sensitivity score for the compound shown: O=C(Nc1cccc(Nc2ncc(Br)c(NCCc3cnc[nH]3)n2)c1)N1CCCC1
A: 2

###

tested on: FMOC11 (patient-derived high-grade serous ovarian cancer cells); experiment: drug sensitivity score (DSS3, normalised partial AUC of % inhibition dose-response) (DSS (score)); higher = more sensitive (stronger inhibition of viability); extreme values may be limits of the assay; conditions: 72 h; library: FO5A; assay format: 2D, 384-well, CellTiter-Glo
OUTCOME_MEASURE: drug sensitivity score
Enter the number alone.

| COMPOUND | drug sensitivity score |
| --- | --- |
| COCCOc1cnc2ccn([C@H](C)c3nnc4c(F)cc(-c5cnn(C)c5)cn34)c(=O)c2c1 | 0 |

Q: Note drug sensitivity score for the compound shown: COc1ccc(COc2cc3oc(=O)c4cc(C(C)O)ccc4c3cc2OC)cc1 (configuration not stated)
A: 0.4

###

The entries below are paired with their reported drug sensitivity score.
system: FMOC02_2 (patient-derived low-grade serous ovarian cancer cells); experiment: drug sensitivity score (DSS3, normalised partial AUC of % inhibition dose-response) (DSS (score)); higher = more sensitive (stronger inhibition of viability); extreme values may be limits of the assay; details: 72 h; library: FO5A; assay format: 2D, 384-well, CellTiter-Glo
Enter the number alone.

| MOLECULE | OUTCOME_MEASURE | VAL |
| --- | --- | --- |
| COc1ccc2[nH]cc(/C=C3\C(=O)Nc4ccc(NC(=O)CCN5CCCCC5)cc43)c2c1 | drug sensitivity score | 12.7 |
| O=S(=O)(c1cccc2c(O)nccc12)N1CCCNCC1 [Hydroxyfasudil] | drug sensitivity score | 0 |
| Cc1c(-c2c(-c3ccc(F)o3)sc3ncnc(O[C@H](Cc4ccccc4OCc4ccnn4CC(F)(F)F)C(=O)O)c23)ccc(OCCN2CCN(C)CC2)c1Cl | drug sensitivity score | 0 |
| CN1CCN(c2ccc3nc(-c4c(N)c5c(F)cccc5[nH]c4=O)[nH]c3c2)CC1 | drug sensitivity score | 1.4 |
| CN1CCN(c2nc(C3=C(c4c[nH]c5ccccc45)C(=O)NC3=O)c3ccccc3n2)CC1 | drug sensitivity score | 4.3 |

Q: Note drug sensitivity score for the molecule shown: CC(C)C[C@H](NC(=O)[C@H](Cc1ccccc1)NC(=O)c1cnccn1)B(O)O
A: 28.8

Q: Note drug sensitivity score for the molecule shown: CNC(=O)CN1CCC(Oc2cc3c(Nc4cccc(Cl)c4F)ncnc3cc2OC)CC1
A: 14

Q: Note drug sensitivity score for the molecule shown: O=c1[nH]c(=O)n([C@H]2C[C@H](O)[C@@H](CO)O2)cc1C(F)(F)F
A: 0
